target: Farnesyl pyrophosphate synthase (Homo sapiens, UniProt P14324); assay: Binding affinity to human FPPS by […] in absence of Mg2+ ions
Sequence (P14324 whole entry): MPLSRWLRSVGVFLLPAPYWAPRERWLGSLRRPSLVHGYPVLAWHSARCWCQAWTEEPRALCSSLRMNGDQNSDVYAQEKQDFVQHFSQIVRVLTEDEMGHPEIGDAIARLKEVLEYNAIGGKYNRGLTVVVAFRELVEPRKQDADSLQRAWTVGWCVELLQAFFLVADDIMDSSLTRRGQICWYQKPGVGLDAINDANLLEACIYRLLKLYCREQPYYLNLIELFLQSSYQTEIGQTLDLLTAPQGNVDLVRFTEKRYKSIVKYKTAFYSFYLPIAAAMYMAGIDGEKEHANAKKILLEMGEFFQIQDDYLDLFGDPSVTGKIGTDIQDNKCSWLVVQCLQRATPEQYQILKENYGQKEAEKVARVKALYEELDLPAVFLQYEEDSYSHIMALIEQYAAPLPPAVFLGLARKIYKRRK
measurement.kind: Kd (µM)
Numbers only, in µM.

Cc1ccc(-c2cc3c(NC(P(=O)(O)O)P(=O)(O)O)ncnc3s2)cc1 56

For reference, reported Kd for Cc1ccc(-c2cc3c(NCP(=O)(O)O)ncnc3s2)cc1 stands at 9.2

###

test: Cytotoxicity against human SH-SY5Y cells assessed as LDH release after 48 hrs (reference value: 0%); assay type: cell-based
measurement.kind: Activity (%)
Numbers only, in %.

Here are 5 compounds together with their reported answers.
compound	recorded.number
O=C(O)Cn1c(C(=O)O)cc2ccc3ccccc3c21	3
Cc1ccc(-c2cc3c(NC(c4ccccc4)P(=O)(O)O)ncnc3s2)cc1Cl (stereo unspecified)	-7
O=P(O)(O)C(O)(Cc1cccnc1)P(=O)(O)O	60
O=P(O)(O)C(Nc1ncnc2sc(-c3ccc(OC4CC4)cc3)cc12)P(=O)(O)O	-1
O=P(O)(O)C(Nc1cncc(-c2ccc(OC3CC3)cc2)c1)P(=O)(O)O	0

Now look at this entry.
For reference, reported Activity for O.O=P(O)(O)C(O)(Cn1ccnc1)P(=O)(O)O stands at 60

###

molecular target: Farnesyl pyrophosphate synthase (Homo sapiens); assay: Allosteric inhibition of human recombinant FPPS using GPP and [3H]IPP as substrate incubated with enzyme for 10 mins prior to substrate addition by liquid scintillation counting analysis
measurement.kind: pIC50
Numbers only, as −log10 of the molar value.

Here are 3 compounds together with their reported answers.
compound	pIC50
O=P(O)(O)C(Cc1cccnc1)P(=O)(O)O	7.48
Cc1ccc(-c2cc3c(NC(c4ccccc4)P(=O)(O)O)ncnc3s2)cc1Cl (configuration not stated)	5.92
Cc1ccc(-c2cc3c(NCP(=O)(O)O)ncnc3s2)cc1Cl	5.48

Query Cc1ccc(-c2cc3c(CCP(=O)(O)O)ncnc3s2)cc1 on Farnesyl pyrophosphate synthase (Homo sapiens); pIC50 returned: 4.59

###

For each of the compounds below, state its IC50.
biological target: Farnesyl pyrophosphate synthase (Homo sapiens); test: Allosteric inhibition of human recombinant FPPS using GPP and [3H]IPP as substrate incubated with enzyme for 10 mins prior to substrate addition by liquid scintillation counting analysis

Here are 2 compounds together with their reported answers.
O=P(O)(O)CCc1cccnc1 > 800 µM
Cc1ccc(-c2cc3c(NCC(=O)O)ncnc3s2)cc1 > 20 µM

Now look at this entry.
For reference, reported IC50 for Cc1ccc(-c2cc3c(NCCP(=O)(O)O)ncnc3s2)cc1 stands at > 20 µM
